src = the supplement of paper PMC9732359

- protocol.text: protein stability index of a GFP-peptide fusion (yeast GPS) (PSI 1-4); higher = more stable; sorted into four equal gates, so the index is relative within each strain
- setup.conditions: san1∆
Overview of recorded protein stability index for various sequences
Number only, please.

As a guide, the following entries are already answered.
DVSVKMGNTKVHCRISC [RRP45]
2.17
LFGGRHYLFNTFTFTAH [SWP82]
1.69
TPNLWAEQPLPVSPLDI [RPS2]
2.31

In: // returns reported protein stability index for input LEWLENPSNTPDKDYLL [FAS1]
Out: 3.27

In: // returns reported protein stability index for input IWLRKTSQMDLARDTPS [RRP4]
Out: 1.54

====

Overview of recorded protein stability index for various sequences
- protocol.text: protein stability index of a GFP-peptide fusion (yeast GPS) (PSI 1-4); higher = more stable; sorted into four equal gates, so the index is relative within each strain
- setup.conditions: pdr5∆
Number only, please.

In: // returns reported protein stability index for input GMIVISMENYHLLIKII [SRB8]
Out: 2.04

In: // returns reported protein stability index for input SYPVNGSQKTFEIDDEH [RPS6A]
Out: 2.72

====

- protocol.text: protein stability index of a GFP-peptide fusion (yeast GPS) (PSI 1-4); higher = more stable; sorted into four equal gates, so the index is relative within each strain
- setup.conditions: ubr1∆
observation.type: protein stability index
Number only, please.

As a guide, the following entries are already answered.
CQLQNSDNSEEEEVDID [RRP43]
3.13
PLLVPGMTPCTVSPDFV [FAS1]
1.64
QNNFHVLIDLLNWFRTT [RGR1]
2.47
ALFLSKINRPPVSVSRI [RPL18A]
2.16
AFAGSKNDEVLGLLLPI [RPN1]
3.19
EPMKQLNATKISPSAPS [YAR002W/NUP60]
2.77
EDDNNNVEKPSSKPAFN [YLR335W/NUP2]
3.2
RLQQQQAQAQAQANNNN [GAL11]
2.04

In: // returns reported protein stability index for input TSDLLGSHLSETEFPPF [ECM29]
Out: 2.9

In: // returns reported protein stability index for input GGNGPEDFQQHEQIRRK [RPO26]
Out: 3.44

In: // returns reported protein stability index for input IQNDIYLNDLMITKRIL [RPN12]
Out: 2.65

====

Overview of recorded protein stability index for various sequences
- protocol.text: protein stability index of a GFP-peptide fusion (yeast GPS) (PSI 1-4); higher = more stable; sorted into four equal gates, so the index is relative within each strain
- setup.conditions: pdr5∆
Number only, please.

KEILDNILPFLWGPHGL [ECM29]
3.09
PQTPLVEPVTERTKLQE [SNU114]
3.07
ADTKAPTFTFGSSALAD [YLR335W/NUP2]
3.01
GLNDLVEQYKFRETTHS [BRR2]
3.03

Kindly review the next sequence as well.
In: // returns reported protein stability index for input WIKNEQERQRQIQKNGP [PRP8]
Out: 3.09

====

- protocol.text: protein stability index of a GFP-peptide fusion (yeast GPS) (PSI 1-4); higher = more stable; sorted into four equal gates, so the index is relative within each strain
- setup.conditions: doa10∆
Overview of recorded protein stability index for various sequences
Number only, please.

As a guide, the following entries are already answered.
KRNKYAAMLTSENAREI [RRP45]
3.04
MGRVIRNQRKGAGSIFT [RPL2A]
2.95
KPETPKGPIIISKNPSN [SIR2]
2.92
QPYEDRPFEGLFVISTE [RRP45]
2.96

In: // returns reported protein stability index for input KKEKLDSGEVDADGDID [DPB4]
Out: 3.05

In: // returns reported protein stability index for input QIANEFNTQQGIKKHSL [YDL116W/NUP84]
Out: 3.01

In: // returns reported protein stability index for input LEQDLHFENAKVIDLDT [YIL149C/MLP2]
Out: 3.08

In: // returns reported protein stability index for input IFGSGFGSADDTYPYLT [FAS1]
Out: 2.3

====

- protocol.text: protein stability index of a GFP-peptide fusion (yeast GPS) (PSI 1-4); higher = more stable; sorted into four equal gates, so the index is relative within each strain
- setup.conditions: san1∆
Overview of recorded protein stability index for various sequences
Number only, please.

SGNGSNPNTNTNSNNTP [PGD1]
2.95

In: // returns reported protein stability index for input PKVPEDIYKSHLDNSKS [RPN1]
Out: 2.93

In: // returns reported protein stability index for input VVDANGCVNSLISGPRN [YMR129W/POM152]
Out: 2.97

====

- protocol.text: protein stability index of a GFP-peptide fusion (yeast GPS) (PSI 1-4); higher = more stable; sorted into four equal gates, so the index is relative within each strain
- setup.conditions: pdr5∆
observation.type: protein stability index
Number only, please.

FGHIDLAKPVFHVGFIA [RPO21]
2.7
SMRIQILRRQAILRQQQ [GAL11]
2.98
ALVAGIERYPSKVTKKH [RPL27B]
1.99
ASRHGQKGTIGITYRRE [RPB2]
1.84
NKEKSNSPTSFFDGSAS [YOR098C/NUP1]
3.07
NNNQKIDDNYIVVVIEI [SRB8]
3.01
IRTILVNIHHLLNEYRP [MED7]
2
RTLRRKGDINPEVSMIR [RPB2]
3.39
FDDACNQIWNIALNLAS [SSN2]
2.88
HTSSNSREIAQPSSSRY [SMB1]
2.97

In: // returns reported protein stability index for input SNIPRGSVIQTHIAESA [MCD1]
Out: 2.88

In: // returns reported protein stability index for input SFLDPLNYGNICEPKET [YJL039C/NUP192]
Out: 2.81

In: // returns reported protein stability index for input LKYPELSIKNSFIINFI [NUT1]
Out: 2

In: // returns reported protein stability index for input NSAVNNAISNTQDDFTT [SRP54]
Out: 3.07

In: // returns reported protein stability index for input EPDRDENWIHVSCLSFM [LIN1]
Out: 3.07

====

- protocol.text: protein stability index of a GFP-peptide fusion (yeast GPS) (PSI 1-4); higher = more stable; sorted into four equal gates, so the index is relative within each strain
- setup.conditions: san1∆
observation.type: protein stability index
Number only, please.

FPRNGKAPEAEQVLSAA [RPL13A]
3.13

In: // returns reported protein stability index for input KAKSHFTNIISRNKALE [YJL039C/NUP192]
Out: 2.39

In: // returns reported protein stability index for input DLIKFSAETLSELIRTT [FAS1]
Out: 2.1

In: // returns reported protein stability index for input NSTASSSNISPEQVYSL [ARP7]
Out: 2.63

====

- protocol.text: protein stability index of a GFP-peptide fusion (yeast GPS) (PSI 1-4); higher = more stable; sorted into four equal gates, so the index is relative within each strain
- setup.conditions: pdr5∆
Label scheme for protein stability index: lower than 3 is f, 3 and above is t.

Recorded results for 5 sequences are shown here.
FHIGYFKATIQILQGIC [RPO31]
f
FFYNISSIHWNNWFSLP [SIN4]
f
LISDSNINNSSVAEKEE [SWI3]
f
RVSKDKKSGSLTFNSKN [FAS2]
t
AFGSSATDISGELRDYI [YJR042W/NUP85]
t

In: Evaluate APSIGRWYQLIATGCKD [YGL100W/SEH1] : protein stability index at minimum 3?
Out: f

In: Evaluate GGVGSMGAINNNIPSLT [SNF6] : protein stability index at minimum 3?
Out: t

In: Evaluate SISTYKDILNLASEVGD [ECM29] : protein stability index at minimum 3?
Out: f

====

- protocol.text: protein stability index of a GFP-peptide fusion (yeast GPS) (PSI 1-4); higher = more stable; sorted into four equal gates, so the index is relative within each strain
- setup.conditions: ubr1∆
observation.type: protein stability index

As a guide, the following entries are already answered.
QNPKLFQTIFSKQDLIH [SIN4]
2.02
KPDVTYADVGGLDMQKQ [RPT3]
3.35
NVANVSGSTEKAFKICE [SIR3]
3.11
TLSVSHGINLQNKKNLK [SSN2]
2.78
LEIDNKDSVTECSKDMK [SIR4]
3.63
KGTNDEGTSISVHLIEC [YCS4]
3.2

In: // returns reported protein stability index for input TLLIAIRGSNRDLKPSN [YML103C/NUP188]
Out: 2.8

In: // returns reported protein stability index for input PLAKIYLEENKSDSQYR [MED1]
Out: 3.16

In: // returns reported protein stability index for input KDKLREFIPHSTEYMMQ [RPN6]
Out: 2.63

In: // returns reported protein stability index for input AVCSTATVVSTNHSAAA [PGD1]
Out: 2.91

In: // returns reported protein stability index for input LEGSVSLPRFSKPVLIV [DIS3]
Out: 3.02
